# credit: patent US20160051541A1

- method-notes: Example 1: plasma concentrations of vanoxerine and metabolites after a 300 mg dose in patients
- Assay type: in vivo, human
- assay-context: human, plasma, 300 mg, 10 patients, 4 h, 1.00 = below LLOQ, read-out: High concentration group average
test-readout: concentration at 4 h (ng/mL)
Numbers only; they are read as ng/mL.

q: What value of measured concentration at 4 h is listed for Fc1ccc(C(OCCN2CCN(CCCc3ccccc3)CC2)c2ccc(F)cc2)cc1 ?
a: 96.1

---

- method-notes: Example 1: plasma concentrations of vanoxerine and metabolites after a 300 mg dose in patients
- Assay type: in vivo, human
- assay-context: human, plasma, 300 mg, 15 patients, 12 h, 1.00 = below LLOQ, read-out: Low concentration group average
test-readout: concentration at 12 h (ng/mL)
Numbers only; they are read as ng/mL.

q: What value of measured concentration at 12 h is listed for Fc1ccc(C(OCCN2CCN(CCCc3ccccc3)CC2)c2ccc(F)cc2)cc1 ?
a: 6.31

---

- method-notes: Example 2: daily doses of vanoxerine for 11 consecutive days in 12 subjects (PK, heart rate, blood pressure)
- Assay type: in vivo, human
- assay-context: human, plasma; printed under the 50 mg line; +- 0.5 hr (0.5-2.0)
test-readout: Tmax

q: What value of measured Tmax is listed for Fc1ccc(C(OCCN2CCN(CCCc3ccccc3)CC2)c2ccc(F)cc2)cc1 [Vanoxerine] ?
a: 1.27 h

---

- method-notes: Example 1: plasma concentrations of vanoxerine and metabolites after a 300 mg dose in patients
- Format: in vivo, human
- assay-context: human, plasma, 300 mg, 10 patients, 3 h, 1.00 = below LLOQ, read-out: High concentration group average
test-readout: concentration at 3 h (ng/mL)
Numbers only; they are read as ng/mL.

q: What value of measured concentration at 3 h is listed for Fc1ccc(C(OCCN2CCN(CCCc3ccccc3)CC2)c2ccc(F)cc2)cc1 [Vanoxerine] ?
a: 156

---

- method-notes: Pharmacokinetic tests in dogs
- Assay type: in vivo
- assay-context: dog, plasma; repetitive dosing in dogs
test-readout: half-life

q: What value of measured half-life is listed for Fc1ccc(C(OCCN2CCN(CCCc3ccccc3)CC2)c2ccc(F)cc2)cc1 [Vanoxerine] ?
a: ~66 h

---

- method-notes: Example 1: plasma concentrations of vanoxerine and metabolites after a 300 mg dose in patients
- Type: in vivo, human
- assay-context: human, plasma, 300 mg, 10 patients, 12 h, 1.00 = below LLOQ, read-out: High concentration group average
test-readout: concentration at 12 h (µg/mL)
Numbers only; they are read as µg/mL.

q: What value of measured concentration at 12 h is listed for Fc1ccc(C(OCCN2CCN(CCCc3ccccc3)CC2)c2ccc(F)cc2)cc1 [Vanoxerine] ?
a: 0.0293

---

- method-notes: Example 1: plasma concentrations of vanoxerine and metabolites after a 300 mg dose in patients
- Format: in vivo, human
- assay-context: human, plasma, 300 mg, 15 patients, 3 h, 1.00 = below LLOQ, read-out: Low concentration group average
test-readout: concentration at 3 h (ng/mL)
Numbers only; they are read as ng/mL.

q: What value of measured concentration at 3 h is listed for Fc1ccc(C(OCCN2CCN(CCCc3ccccc3)CC2)c2ccc(F)cc2)cc1 [Vanoxerine] ?
a: 31.4

---

- method-notes: Further studies of half-life and steady state on oral dosing
- Assay type: in vivo
- assay-context: plasma, oral; in some cases
test-readout: half-life

q: What value of measured half-life is listed for Fc1ccc(C(OCCN2CCN(CCCc3ccccc3)CC2)c2ccc(F)cc2)cc1 ?
a: ≤ 125 h

---

- method-notes: Example 1: plasma concentrations of vanoxerine and metabolites after a 300 mg dose in patients
- Type: in vivo, human
- assay-context: human, plasma, 300 mg, 15 patients, 8 h, 1.00 = below LLOQ, read-out: Low concentration group average
test-readout: concentration at 8 h

q: What value of measured concentration at 8 h is listed for Fc1ccc(C(OCCN2CCN(CCCc3ccccc3)CC2)c2ccc(F)cc2)cc1 [Vanoxerine] ?
a: 11.8 ng/mL

---

- method-notes: Example 1: plasma concentrations of vanoxerine and metabolites after a 300 mg dose in patients
- Format: in vivo, human
- assay-context: human, plasma, 300 mg, 15 patients, 6 h, 1.00 = below LLOQ, read-out: Low concentration group average
test-readout: concentration at 6 h (ng/mL)
Numbers only; they are read as ng/mL.

q: What value of measured concentration at 6 h is listed for Fc1ccc(C(OCCN2CCN(CCCc3ccccc3)CC2)c2ccc(F)cc2)cc1 ?
a: 16.7

---

- method-notes: Example 1: plasma concentrations of vanoxerine and metabolites after a 300 mg dose in patients
- Format: in vivo, human
- assay-context: human, plasma, 300 mg, 10 patients, 8 h, 1.00 = below LLOQ, read-out: High concentration group average
test-readout: concentration at 8 h (ng/mL)
Numbers only; they are read as ng/mL.

q: What value of measured concentration at 8 h is listed for Fc1ccc(C(OCCN2CCN(CCCc3ccccc3)CC2)c2ccc(F)cc2)cc1 ?
a: 43.2
